Tested on: MCF7 breast
assayExplanation: NCI-60 one-dose screen, 48 h (100 = growth as untreated, 0 = no growth, -100 = all killed)
testContext: 10 µM unless noted
Compounds without any hit were thinned out: in the full panel of roughly 83,000, 20% have a hit.
parameterMeasured: growth (%)

compound: CC(C)N(Cc1ccccc1)c1c(Cl)ssc1=O
parameterMeasured: growth
measurementUnit: %
readoutValue: 101

compound: N#CC(C#N)C(C#N)C#N
parameterMeasured: growth
measurementUnit: %
readoutValue: 95.5

compound: COc1cccc(C2=NN(C(C)=O)C(c3cc(OC)c(OC)c(OC)c3)C2)c1 (stereo not given)
parameterMeasured: growth
measurementUnit: %
readoutValue: 3.81

compound: Cc1ccc(C2=Nc3c(ccc4c(C)c(C)c(=O)oc34)OC2)cc1
parameterMeasured: growth
measurementUnit: %
readoutValue: 115

compound: CCOC(=O)C1=CCC(n2cc(C)c(=O)[nH]c2=O)O1 (stereo not given)
parameterMeasured: growth
measurementUnit: %
readoutValue: 119

compound: Nc1nc(SCc2cccnc2)c2ncn(C3OC(CO)C(O)C3O)c2n1 (stereo not given)
parameterMeasured: growth
measurementUnit: %
readoutValue: 94.9

compound: COC(=O)[C@H]1[C@H]2C[C@@H]3c4[nH]c5cc(OC)ccc5c4CCN3C[C@H]2C[C@@H](OC(=O)/C=C/c2cc(OC)c(OC)c(OC)c2)[C@@H]1OC
parameterMeasured: growth
measurementUnit: %
readoutValue: 29.1

compound: O=C(c1ccc(N2CCOCC2)cc1[N+](=O)[O-])N1CCOCC1
parameterMeasured: growth
measurementUnit: %
readoutValue: 127

compound: CSc1nc(-c2ccc(O)cc2O)c2c(=O)[nH]c(Nc3ccc(S(=O)(=O)Nc4nc(C)cc(C)n4)cc3)nc2n1
parameterMeasured: growth
measurementUnit: %
readoutValue: 113

compound: COC(=O)CC1=C(c2ccc([N+](=O)[O-])cc2)CCC1=O
parameterMeasured: growth
measurementUnit: %
readoutValue: 104

compound: NS(=O)(=O)c1cc2c(cc1Cl)NC=NS2(=O)=O
parameterMeasured: growth
measurementUnit: %
readoutValue: 96.9

compound: O=Cc1ccccc1C(=O)O
parameterMeasured: growth
measurementUnit: %
readoutValue: 93.7

compound: COc1cnc2c(c1)C(=O)c1c-2n(CCCNC2=NCCS2)c(=O)c2cc(F)ccc12
parameterMeasured: growth
measurementUnit: %
readoutValue: 3.19

compound: Oc1c(Cl)cc(Cl)c(Cl)c1Cc1c(O)c(Cl)cc(Cl)c1Cl
parameterMeasured: growth
measurementUnit: %
readoutValue: 10.3

compound: COc1cc(OC)c2c(c1Cl)O[C@]1(C2=O)C(OCc2ccccc2)=CC(=O)C[C@H]1C
parameterMeasured: growth
measurementUnit: %
readoutValue: 12.7

====

System: LOX IMVI melanoma
assayExplanation: NCI-60 one-dose screen, 48 h (100 = growth as untreated, 0 = no growth, -100 = all killed)
testContext: 10 µM unless noted
About 83,000 compounds went through this panel and 20% of them were active in at least one assay; those are over-represented in the sample as a whole.
Note to self: growth under 50% means MET, ties and anything higher get NOT MET.

compound: CCN(CC)CCNCC(=O)Oc1ccc(/C=C/C(=O)CC(=O)/C=C/c2ccc(OC(=O)CNCCN(CC)CC)c(OC)c2)cc1OC
className: MET

compound: O=C(Nc1cccc(-n2cc(-c3ccncc3)c(-c3cc(O)cc(Cl)c3)n2)c1)Nc1ccc(Cl)c(Cl)c1
className: MET

compound: COc1ccc(-n2cnc3cc(C(=O)N4CCCCC4)ccc32)cc1
className: NOT MET

compound: CCOC(=O)CNC(=O)C1(NC(=O)CNC(=O)OCc2ccccc2)CCCC1
className: NOT MET

compound: O=C(Nc1ccc2c(c1)C(=O)c1ccccc1-2)c1ccccc1
className: NOT MET

compound: COc1ccc2c(c1)sc1nc(-c3ccc(Br)cc3)cn12
className: NOT MET

compound: COc1ccc(C2=NN(C(N)=S)C(c3ccc4c(c3)OCO4)C2)cc1 (centres undefined)
className: MET

compound: Cc1ccc(/C=C/C(=O)c2ccc(F)cc2)s1
className: NOT MET

compound: Cc1ccc(C2=Nc3c(ccc4c(C)c(C)c(=O)oc34)OC2)cc1
className: NOT MET

compound: COc1ccc(OC)c2c1CCC1(C2)NC(=O)NC1=O (centres undefined)
className: NOT MET

compound: Cc1cc2c(cc1C)[n+](Cc1ccc3ccccc3c1)cn2Cc1ccc2ccccc2c1
className: MET

compound: CC1CN(C2CCCCC2)C(=O)NC1=O (centres undefined)
className: NOT MET

compound: CSc1nc(Nc2ccc(S(=O)(=O)Nc3ccon3)cc2)c(C#N)c(-c2ccc(Cl)cc2)n1
className: NOT MET

compound: N#Cc1c(NC(=O)c2ccco2)[n+]([O-])c2cc(Cl)c(Cl)cc2[n+]1[O-]
className: NOT MET

compound: CC[N+](CCCCCCCCCC[N+](CC)(c1ccccn1)c1ccccn1)(c1ccccn1)c1ccccn1
className: MET

compound: OC(c1cc(-c2cccc(Cl)c2)nc2ccccc12)C1CCCCN1 (centres undefined)
className: MET

compound: COc1cc(C2=NN(C=O)C(c3cccc(Nc4ccnc5cc(Cl)ccc45)c3)C2)cc(OC)c1OC (centres undefined)
className: NOT MET

compound: C=C1CC[C@@H]2[C@](C)(COC(C)=O)[C@H](OC(C)=O)CC[C@@]2(C)[C@@H]1CC(NCc1ccccc1)C1=CCOC1=O (some centres undefined)
className: MET

compound: CCCCCCC(CC#N)(CCC)CCCC (centres undefined)
className: NOT MET

compound: COc1ccc(-c2cc(-c3nnc(SCC(=O)Nc4ccc(C(C)=O)cc4)n3-c3ccccc3)c3ccccc3n2)cc1OC
className: NOT MET

compound: Cn1c(=O)c2[nH]c(=S)n(Cc3ccccc3)c2n(C)c1=O
className: NOT MET

compound: COc1ccc2c(c1)sc1nc(-c3ccc(N(C)C)cc3)cn12
className: NOT MET

compound: CCCCCCCCCCOC(C)=O
className: NOT MET

====

Test system: PC-3 prostate
assayExplanation: NCI-60 one-dose screen, 48 h (100 = growth as untreated, 0 = no growth, -100 = all killed)
testContext: 10 µM unless noted
The panel holds about 83,000 compounds, 20% with a hit somewhere; the sample as a whole holds those more often.
Reported growth is given for each of the following compounds.
parameterMeasured: growth (%)

compound: O=C(Nc1ccccc1OC(=O)c1ccccc1)c1ccccc1
parameterMeasured: growth
readoutValue: 88.5
--
compound: CC(=O)Nc1ccc(C(=O)COc2ccc(/C=C3\CCc4ccccc4C3=O)cc2)cc1
parameterMeasured: growth
readoutValue: 88.8
--
compound: N#Cc1c(-c2ccccc2)cc(-c2ccccc2)n(CC(=O)O)c1=O
parameterMeasured: growth
readoutValue: 70.4
--
compound: Cc1ccccc1NC(=O)NC(CC(N)=O)c1ccc2c(c1)nc(-c1cccc(Oc3ccc(C(C)(C)C)cc3)c1)n2CCCN1CCCCC1C (stereo unspecified)
parameterMeasured: growth
readoutValue: 29.7
--
compound: C1CCC(C(CC2CCCCN2)C2CCCCC2)CC1 (stereo unspecified)
parameterMeasured: growth
readoutValue: 23.9
--
compound: O=C1C=CC(=O)N1c1ccccn1
parameterMeasured: growth
readoutValue: 99.4
--
compound: O=Nc1c2cccnc2n2nnc3ccc(Cl)cc3c12
parameterMeasured: growth
readoutValue: -26.9
--
compound: COc1cnc2c(c1)C(=O)c1c-2n(CCCn2ccnc2)c(=O)c2cc(F)ccc12
parameterMeasured: growth
readoutValue: -4.35
--
compound: CC1Cc2ccccc2N1C(=O)c1ccc(C(=O)c2ccccc2)cc1 (stereo unspecified)
parameterMeasured: growth
readoutValue: 97
--
compound: COc1ccc2c(c1)C(=Nc1cc(OC)c(OC)c(OC)c1)C(=O)N2
parameterMeasured: growth
readoutValue: 77.5
--
compound: CC(C)Sc1nc(-c2ccc(Br)cc2)c(C#N)c(N2CCCCC2)n1
parameterMeasured: growth
readoutValue: 97.5

====

Test system: ACHN renal
assayExplanation: NCI-60 one-dose screen, 48 h
testContext: 10 µM unless noted
This is part of a sample that, as a whole, favours compounds with a hit. Of some 83,000 tested, about 20% had one in any assay. The source made the active and inactive calls. The calls were made as follows: active = growth percent below 10; inactive = the rest.
Classes used: active, inactive

compound: CCCCCN(CCCCC)CCCNc1c2c(nc3ccc(Cl)cc13)CCCC2
className: inactive
//
compound: N#Cc1c(NC(=O)c2ccco2)[n+]([O-])c2ccccc2[n+]1[O-]
className: inactive
//
compound: COc1ccc2c(=O)c(OC)c(-c3cc(OC)c(OC)c(OC)c3)oc2c1
className: inactive
//
compound: COc1ccc(C2=NN(C(C)=O)C(c3cccc(Nc4ccnc5cc(Cl)ccc45)c3)C2)cc1 (configuration not stated)
className: inactive
//
compound: CC(=O)N1N=C(c2ccc(C(F)(F)F)cc2)CC1c1ccc2c(c1)OCO2 (configuration not stated)
className: inactive
//
compound: Nc1nc(Nc2ccccc2SSc2ccccc2Nc2nc(N)nc(-c3cccc(Cl)c3)n2)nc(-c2cccc(Cl)c2)n1
className: inactive
//
compound: N#Cc1ccc(-c2csc(Nc3ccc4nc5n(c(=O)c4c3)CCC5)n2)cc1
className: inactive
//
compound: Nc1nc(Nc2ccccc2SSc2ccccc2Nc2nc(N)nc(C(Cl)(Cl)Cl)n2)nc(C(Cl)(Cl)Cl)n1
className: active
//
compound: O=C(N/N=C/c1ccc(Cl)cc1Cl)c1ccccc1Nc1cccc(C(F)(F)F)c1
className: inactive
//
compound: N#Cc1c(-c2ccccc2)cc(-c2ccccc2)n(CC(=O)O)c1=O
className: inactive
//
compound: COc1cccc(-c2nc(-c3ccc(N)cc3)co2)c1
className: inactive
//
compound: O=C(C(=O)c1cc(Br)ccc1O)c1cc(Br)ccc1O
className: inactive
